Tested on: c-Src
Assay: phosphorylation enrichment, bacterial display (enrichment ratio); higher = better substrate or ligand; peptides without Tyr show the background
REPORTED PROPERTY: phosphorylation enrichment
I only need the number, thanks.

Consider the reported phosphorylation enrichment for these sequences:
Q. // fetch c-Src phosphorylation enrichment for LNPLIYSLRNK [OR5R1_Y290]
A. 6.55

Q. Next: QVMDGYPIPIG [MMP14_Y353_M355I]
A. 0.3

Q. Next: EQMASYFGHSV [ITGA2B_Y319]
A. 0.553

More entries:
Q. // fetch c-Src phosphorylation enrichment for TNYCLYLRSLE [MTM1_Y71_R69C]
A. 0.887

Q. Next: EPAVLYNLKER [MYH7_Y103_D107E]
A. 0.694

Q. Next: PPGRSYSPCDY [TNS1_Y793_Y796C]
A. 0.581

Q. Next: DKMEAYNIDET [TEKT4_Y210]
A. 0.492

====

Target: EPHB1 (UniProt P54762)
Sequence (P54762 whole entry, looked up): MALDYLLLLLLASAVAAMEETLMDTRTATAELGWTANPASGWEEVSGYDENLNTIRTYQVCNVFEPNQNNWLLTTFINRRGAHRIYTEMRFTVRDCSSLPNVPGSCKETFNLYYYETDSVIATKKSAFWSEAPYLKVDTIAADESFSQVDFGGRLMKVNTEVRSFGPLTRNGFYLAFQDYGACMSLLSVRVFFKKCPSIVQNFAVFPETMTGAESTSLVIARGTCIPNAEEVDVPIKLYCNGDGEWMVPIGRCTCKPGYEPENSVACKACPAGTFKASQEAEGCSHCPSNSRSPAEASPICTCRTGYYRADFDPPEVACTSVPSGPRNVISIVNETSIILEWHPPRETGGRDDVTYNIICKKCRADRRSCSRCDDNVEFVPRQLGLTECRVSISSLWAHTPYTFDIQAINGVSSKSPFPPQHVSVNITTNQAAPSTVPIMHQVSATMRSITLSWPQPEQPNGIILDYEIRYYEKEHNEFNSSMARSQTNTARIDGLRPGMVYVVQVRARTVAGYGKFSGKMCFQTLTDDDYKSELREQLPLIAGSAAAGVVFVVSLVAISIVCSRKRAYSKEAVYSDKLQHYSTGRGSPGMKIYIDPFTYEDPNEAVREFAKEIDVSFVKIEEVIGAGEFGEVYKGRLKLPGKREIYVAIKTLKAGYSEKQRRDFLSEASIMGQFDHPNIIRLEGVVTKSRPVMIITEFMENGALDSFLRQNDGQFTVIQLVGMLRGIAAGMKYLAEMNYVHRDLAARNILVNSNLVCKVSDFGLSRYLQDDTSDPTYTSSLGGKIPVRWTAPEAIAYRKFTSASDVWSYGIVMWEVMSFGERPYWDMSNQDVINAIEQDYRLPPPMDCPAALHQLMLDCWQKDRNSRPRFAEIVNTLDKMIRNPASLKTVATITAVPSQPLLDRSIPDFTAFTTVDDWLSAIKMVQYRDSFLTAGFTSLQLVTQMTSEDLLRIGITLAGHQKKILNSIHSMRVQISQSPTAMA
Assay: phosphorylation enrichment, bacterial display (enrichment ratio); higher = better substrate or ligand; peptides without Tyr show the background
Lab note: class by phosphorylation enrichment, see 1 = under 0.4, 2 = from 0.4 up to 0.6, 3 = 0.6 and over

// below: answered sequences
Q. Any idea which band HFVFFYSFLLK [PTEN_Y178_R173H_YF] is in?
A. 3

Q. Next: DAASNYARGHY [TUBA3E_Y103]
A. 1

Q. Next: VPDTNYTSDEE [STK33_Y439_A437T]
A. 2

Q. Next: KPPFSYNALIM [FOXG1_Y186]
A. 2

Q. Next: REGKIYEFNQV [ZNF665_Y162_H157R_YF]
A. 1

More entries:
Q. Any idea which band LVSCTYQLARR [FGFR2_Y608_G613R] is in?
A. 3

Q. Next: PLDGEYFTLPI [TP53_Y327_Q331P]
A. 3

Q. Next: AAVLNYKAGRD [GRIN2A_Y737]
A. 1

Q. Next: FISVGYVDGTQ [HLA-B_Y51_D54G]
A. 1

Q. Next: KVKEQYQDVPM [PKP2_Y659]
A. 2

====

Target: Fes (UniProt P07332)
Sequence (P07332 whole entry, looked up): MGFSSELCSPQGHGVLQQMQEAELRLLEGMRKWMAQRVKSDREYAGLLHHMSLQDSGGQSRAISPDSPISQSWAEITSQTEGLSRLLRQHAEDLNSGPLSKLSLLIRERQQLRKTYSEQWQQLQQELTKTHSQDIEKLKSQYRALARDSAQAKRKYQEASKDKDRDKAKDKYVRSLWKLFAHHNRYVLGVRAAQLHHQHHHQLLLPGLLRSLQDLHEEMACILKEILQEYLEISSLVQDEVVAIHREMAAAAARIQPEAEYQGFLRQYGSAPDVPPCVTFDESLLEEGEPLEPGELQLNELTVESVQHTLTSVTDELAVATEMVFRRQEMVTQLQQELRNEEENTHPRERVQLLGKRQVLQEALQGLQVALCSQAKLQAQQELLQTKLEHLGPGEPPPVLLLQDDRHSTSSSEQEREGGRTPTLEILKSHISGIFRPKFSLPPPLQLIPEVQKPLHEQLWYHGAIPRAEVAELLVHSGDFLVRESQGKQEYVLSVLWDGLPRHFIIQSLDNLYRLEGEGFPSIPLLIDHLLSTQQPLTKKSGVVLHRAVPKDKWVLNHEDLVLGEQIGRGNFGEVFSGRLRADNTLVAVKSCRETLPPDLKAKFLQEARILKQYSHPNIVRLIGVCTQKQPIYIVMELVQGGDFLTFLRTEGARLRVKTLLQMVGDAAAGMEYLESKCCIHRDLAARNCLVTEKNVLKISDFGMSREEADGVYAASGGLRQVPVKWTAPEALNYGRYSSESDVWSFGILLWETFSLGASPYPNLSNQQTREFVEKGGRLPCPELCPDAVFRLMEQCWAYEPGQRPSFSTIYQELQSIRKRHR
Experiment: phosphorylation enrichment, bacterial display (enrichment ratio); higher = better substrate or ligand; peptides without Tyr show the background
REPORTED PROPERTY: phosphorylation enrichment
I only need the number, thanks.

Consider the reported phosphorylation enrichment for these sequences:
Q. Given TLKDVCDDGKF [RPS6KA3_Y483_Y483C_YF] , state its recorded phosphorylation enrichment.
A. 1.1

Q. Next: KGKLIYLLRDS [NXPE1_Y350_G353R]
A. 0.964

Q. Next: HFVFFYSFLLK [PTEN_Y178_R173H_YF]
A. 2.93

Q. Next: QKNVSYVSRVS [TASOR_Y1043_T1046R]
A. 0.739

Q. Next: AKQVGYENAGT [PC_Y304]
A. 0.614

Q. Next: RGDCTYAPLLG [AR_Y269_M268T]
A. 1.46

Q. Next: CTTIHYNYMGN [TP53_Y234_C238G]
A. 0.987

# context switch: different sequence, same phosphorylation enrichment
Q. Given HQEPVCSVAFS [TBL1X_Y509_Y509C] , state its recorded phosphorylation enrichment.
A. 2.01

====

Molecular target: Jak2 (UniProt O60674)
Sequence (O60674 whole entry, looked up): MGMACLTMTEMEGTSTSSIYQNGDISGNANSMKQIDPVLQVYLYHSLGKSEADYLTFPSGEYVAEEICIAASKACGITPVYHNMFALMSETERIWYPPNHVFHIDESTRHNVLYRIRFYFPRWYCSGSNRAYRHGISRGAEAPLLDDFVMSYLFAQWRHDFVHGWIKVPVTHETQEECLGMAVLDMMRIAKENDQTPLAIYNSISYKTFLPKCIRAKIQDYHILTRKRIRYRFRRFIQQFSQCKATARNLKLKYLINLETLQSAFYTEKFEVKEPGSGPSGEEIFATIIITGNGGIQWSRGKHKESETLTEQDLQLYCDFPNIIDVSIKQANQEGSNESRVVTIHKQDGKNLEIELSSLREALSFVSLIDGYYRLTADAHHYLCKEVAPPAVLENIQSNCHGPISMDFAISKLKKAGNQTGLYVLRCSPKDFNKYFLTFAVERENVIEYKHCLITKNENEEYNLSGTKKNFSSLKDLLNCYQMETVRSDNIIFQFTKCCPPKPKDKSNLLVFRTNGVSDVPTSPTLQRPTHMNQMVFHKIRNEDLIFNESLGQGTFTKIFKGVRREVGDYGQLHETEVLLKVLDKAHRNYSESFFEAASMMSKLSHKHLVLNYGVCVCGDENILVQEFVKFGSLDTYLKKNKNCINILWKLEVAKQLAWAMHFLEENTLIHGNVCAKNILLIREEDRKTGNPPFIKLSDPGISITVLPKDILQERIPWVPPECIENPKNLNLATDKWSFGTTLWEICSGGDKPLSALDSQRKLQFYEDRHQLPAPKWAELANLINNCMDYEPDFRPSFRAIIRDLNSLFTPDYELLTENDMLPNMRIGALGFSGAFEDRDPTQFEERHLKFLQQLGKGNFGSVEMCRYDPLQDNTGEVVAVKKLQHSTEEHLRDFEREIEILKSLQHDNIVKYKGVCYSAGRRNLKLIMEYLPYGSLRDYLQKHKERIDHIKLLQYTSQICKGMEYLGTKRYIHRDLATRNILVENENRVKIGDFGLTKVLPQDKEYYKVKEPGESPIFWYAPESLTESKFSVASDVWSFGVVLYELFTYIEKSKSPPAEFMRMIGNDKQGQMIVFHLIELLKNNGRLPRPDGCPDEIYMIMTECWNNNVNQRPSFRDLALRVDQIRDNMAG
Assay: phosphorylation enrichment, bacterial display (enrichment ratio); higher = better substrate or ligand; peptides without Tyr show the background
REPORTED PROPERTY: phosphorylation enrichment
I only need the number, thanks.

Q. // fetch Jak2 (UniProt O60674) phosphorylation enrichment for EQKKYYNAMKN [SCN5A_Y1495_K1500N]
A. 0.489

# context switch: different sequence, same phosphorylation enrichment
Q. // fetch Jak2 (UniProt O60674) phosphorylation enrichment for GQSKGYRPKLF [SIPA1L3_Y1376_YF]
A. 0.37

====

Biological target: SHP2-C SH2;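 also: peptide library displayed on the E. coli surface as eCPX fusions, selected cells deep-sequenced, score is each peptide's frequency after selection divided by its frequency in the input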
Test: SH2 binding enrichment of the phosphorylated peptide, bacterial display (enrichment ratio); higher = better substrate or ligand; peptides without Tyr show the background
REPORTED PROPERTY: SH2 binding enrichment
I only need the number, thanks.

Consider the reported SH2 binding enrichment for these sequences:
Q. Given IGSQRYKLGVR [RB1_Y446] , state its recorded SH2 binding enrichment.
A. 1.4

Q. Next: EDDIIYTQDFT [STK11_Y362]
A. 0.734

# context switch: different sequence, same SH2 binding enrichment
Q. Given CSEETYRLMLQ [RET_Y981_M980T] , state its recorded SH2 binding enrichment.
A. 0.553

====

Target: Hck (UniProt P08631)
Sequence (P08631 whole entry, looked up): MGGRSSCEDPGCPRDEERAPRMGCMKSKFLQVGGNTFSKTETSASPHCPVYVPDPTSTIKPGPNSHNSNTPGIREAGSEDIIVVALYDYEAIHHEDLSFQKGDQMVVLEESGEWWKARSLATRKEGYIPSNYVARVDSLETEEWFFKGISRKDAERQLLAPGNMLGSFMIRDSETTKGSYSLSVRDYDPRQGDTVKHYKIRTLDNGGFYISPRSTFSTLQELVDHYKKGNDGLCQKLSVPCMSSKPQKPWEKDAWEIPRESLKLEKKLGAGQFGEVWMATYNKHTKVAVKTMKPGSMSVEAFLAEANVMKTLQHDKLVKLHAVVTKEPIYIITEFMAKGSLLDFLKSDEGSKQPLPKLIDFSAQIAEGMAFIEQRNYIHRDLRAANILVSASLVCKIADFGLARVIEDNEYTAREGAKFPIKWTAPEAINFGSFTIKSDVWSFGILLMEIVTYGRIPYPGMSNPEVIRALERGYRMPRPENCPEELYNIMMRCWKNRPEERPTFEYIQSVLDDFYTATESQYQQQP
Assay: phosphorylation enrichment, bacterial display (enrichment ratio); higher = better substrate or ligand; peptides without Tyr show the background
Measured phosphorylation enrichment values are reported for all entries that follow.
I only need the number, thanks.

Consider the reported phosphorylation enrichment for these sequences:
Q. Given LLVVVYKFRCF [PSEN1_Y154_L153V_YF] , state its recorded phosphorylation enrichment.
A. 0.462

Q. Next: NTYEKYWLFYQ [GATM_Y103_P105L]
A. 1.36

More entries:
Q. Given AAVDEYLEYRR [FAM221A_Y17] , state its recorded phosphorylation enrichment.
A. 0.863

Q. Next: KPMDTYFDSTR [DYNC2H1_Y2230_YF]
A. 0.484

Q. Next: KKHFSYAWPFF [BRDT_Y291_YF]
A. 0.428

Q. Next: FGGTVYHSPVS [PRC1_Y511]
A. 0.851

Q. Next: YEDTLYTVLHR [UNC13D_Y61_A59T]
A. 8.16

Q. Next: GKFFQYDTWKQ [IGF2_Y116]
A. 0.826

Q. Next: KPPFSYNALIM [FOXG1_Y186]
A. 0.472

Q. Next: QEALEYFMKQI [PIK3CA_Y1038_M1043I]
A. 0.631

====

Measured phosphorylation enrichment values are reported for all entries that follow.
Target: FGFR3 (UniProt P22607)
Sequence (P22607 whole entry, looked up): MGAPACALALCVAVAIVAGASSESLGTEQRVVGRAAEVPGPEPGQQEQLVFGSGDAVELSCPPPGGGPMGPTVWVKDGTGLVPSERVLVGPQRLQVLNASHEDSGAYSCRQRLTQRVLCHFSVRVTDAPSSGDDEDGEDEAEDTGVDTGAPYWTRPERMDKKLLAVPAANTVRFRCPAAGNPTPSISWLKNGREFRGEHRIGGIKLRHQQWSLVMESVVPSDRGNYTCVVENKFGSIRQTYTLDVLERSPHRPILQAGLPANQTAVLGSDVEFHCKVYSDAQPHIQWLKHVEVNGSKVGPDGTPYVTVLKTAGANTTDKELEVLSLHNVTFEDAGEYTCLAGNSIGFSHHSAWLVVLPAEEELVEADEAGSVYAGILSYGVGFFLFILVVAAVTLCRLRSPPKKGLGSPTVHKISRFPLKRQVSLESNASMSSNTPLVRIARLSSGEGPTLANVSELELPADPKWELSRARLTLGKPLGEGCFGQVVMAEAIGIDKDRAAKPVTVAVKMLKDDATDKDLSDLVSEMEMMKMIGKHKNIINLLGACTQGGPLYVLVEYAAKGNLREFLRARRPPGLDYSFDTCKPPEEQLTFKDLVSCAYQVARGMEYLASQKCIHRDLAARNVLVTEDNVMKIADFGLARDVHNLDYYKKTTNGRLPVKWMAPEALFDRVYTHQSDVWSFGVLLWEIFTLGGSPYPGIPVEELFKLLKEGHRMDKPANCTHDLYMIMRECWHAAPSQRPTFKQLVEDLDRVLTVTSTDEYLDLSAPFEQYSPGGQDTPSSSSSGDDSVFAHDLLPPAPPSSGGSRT
Experiment: phosphorylation enrichment, bacterial display (enrichment ratio); higher = better substrate or ligand; peptides without Tyr show the background
I only need the number, thanks.

Q. Given WCKPLYFSCAV [MMS22L_Y28_P27L] , state its recorded phosphorylation enrichment.
A. 1.1

More entries:
Q. Given VVTFSYKPPGN [RBL2_Y544] , state its recorded phosphorylation enrichment.
A. 0.519

Q. Next: IWIFHYAKGQP [MPZ_Y82_S78W]
A. 0.768

Q. Next: LGLTVYADCLA [ABCA4_Y2063]
A. 0.78

Q. Next: SSDKVYAHQMD [MLH1_Y379_V384D]
A. 0.52

Q. Next: AKLVQYYMEHH [PTPN11_Y80_E76K]
A. 0.549

Q. Next: ADYYDYGRGLS [KHDRBS3_Y304_H306R]
A. 15.5

Q. Next: KRAIGYFSATS [FAM120A_Y327_YF]
A. 0.467

Q. Next: CTHDLYMIMRE [FGFR3_Y724]
A. 0.837

Q. Next: SNVEQYQAMVT [TPR_Y965]
A. 0.541

Q. Next: NQDRTYFESVR [SPEN_Y632_YF]
A. 0.69

Q. Next: AEQDCYHGAIP [FER_Y461_W460C]
A. 0.599

====

Molecular target: FGFR1 (UniProt P11362)
Sequence (P11362 whole entry, looked up): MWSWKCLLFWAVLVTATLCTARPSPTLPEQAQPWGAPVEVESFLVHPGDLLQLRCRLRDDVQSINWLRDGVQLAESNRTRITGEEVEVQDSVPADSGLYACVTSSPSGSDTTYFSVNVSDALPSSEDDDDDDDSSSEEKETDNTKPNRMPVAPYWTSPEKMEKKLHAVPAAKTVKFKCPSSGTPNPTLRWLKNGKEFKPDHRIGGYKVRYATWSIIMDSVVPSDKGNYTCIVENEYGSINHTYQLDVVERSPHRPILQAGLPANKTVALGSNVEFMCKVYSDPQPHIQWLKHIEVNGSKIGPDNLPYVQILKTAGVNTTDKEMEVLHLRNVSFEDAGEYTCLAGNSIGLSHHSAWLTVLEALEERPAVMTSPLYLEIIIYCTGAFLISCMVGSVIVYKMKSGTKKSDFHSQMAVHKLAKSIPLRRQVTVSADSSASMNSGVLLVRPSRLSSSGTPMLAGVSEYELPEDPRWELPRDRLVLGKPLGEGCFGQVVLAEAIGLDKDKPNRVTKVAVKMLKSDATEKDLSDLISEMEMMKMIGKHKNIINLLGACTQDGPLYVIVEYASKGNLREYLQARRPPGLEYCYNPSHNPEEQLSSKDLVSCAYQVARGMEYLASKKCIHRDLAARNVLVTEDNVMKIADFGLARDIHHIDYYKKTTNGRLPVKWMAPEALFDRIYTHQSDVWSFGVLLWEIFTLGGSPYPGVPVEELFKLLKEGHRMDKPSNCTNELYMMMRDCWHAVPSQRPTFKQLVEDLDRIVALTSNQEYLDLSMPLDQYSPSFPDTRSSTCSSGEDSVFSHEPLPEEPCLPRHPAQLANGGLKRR
Experiment: phosphorylation enrichment, bacterial display (enrichment ratio); higher = better substrate or ligand; peptides without Tyr show the background
REPORTED PROPERTY: phosphorylation enrichment
I only need the number, thanks.

Consider the reported phosphorylation enrichment for these sequences:
Q. Given EVQKDYEHLFK [PAM16_Y77_N76D] , state its recorded phosphorylation enrichment.
A. 0.498

Q. Next: EEQKRYYNAMK [SCN5A_Y1494_K1493R]
A. 0.511

Q. Next: DSFSSYCNAVA [SLC20A2_Y436_YF]
A. 0.497

Q. Next: KFVVVYFRETD [IL17RB_Y447_I451T_YF]
A. 0.512

Q. Next: ASTHVYQIMNH [ITK_Y588]
A. 0.508

Q. Next: DENWFYTRPAS [RPS19_Y54_A57P]
A. 0.496

Q. Next: FEEDSYVERSQ [RET_Y905_K907E_YF]
A. 0.508

More entries:
Q. Given AAVDEYLEYRR [FAM221A_Y17] , state its recorded phosphorylation enrichment.
A. 0.513

====

Measured phosphorylation enrichment values are reported for all entries that follow.
Tested on: c-Src
Experiment: phosphorylation enrichment, bacterial display (enrichment ratio); higher = better substrate or ligand; peptides without Tyr show the background
I only need the number, thanks.

Consider the reported phosphorylation enrichment for these sequences:
Q. Given GKFFQYDTWKQ [IGF2_Y116] , state its recorded phosphorylation enrichment.
A. 0.567

Q. Next: FLNSIYQSRDE [ROS1_Y2227_K2228Q]
A. 4.63

# context switch: different sequence, same phosphorylation enrichment
Q. Given ETRWNYHFEVV [GCNT3_Y267_K266N] , state its recorded phosphorylation enrichment.
A. 0.433
